test system: isolated guinea-pig atria; test: Chronotropic activity in the isolated guinea-pig atrium (spontaneous beating rate of right atrium); conditions: 15% increase of spontaneous beating rate of right atrium; cumulative addition; 30°C
quantity: chronotropic activity in the isolated guinea-pig atria ED₁₅

CCCCn1c(=O)c2c(ncn2CC2(C)OCCO2)n(C2CC2)c1=O [Example 40] | > 10 × 10⁻⁵ M
CC(=O)Cn1c(=O)c2c(ncn2C)n(C2CC2)c1=O [Example 3] | > 10 × 10⁻⁵ M
Cn1cnc2c1c(=O)n(CCCCC1(C)OCCO1)c(=O)n2C1CC1 [Example 38] | > 10 × 10⁻⁵ M
Cn1c(=O)c2[nH]cnc2n(C)c1=O [Reference compound A, theophylline, reference compound] | 7.6 × 10⁻⁵ M
CCCCCn1cnc2c1c(=O)n(CCCCC(C)=O)c(=O)n2C1CC1 [Example 16] | > 10 × 10⁻⁵ M
CCCCCCn1c(=O)c2c(ncn2CC(C)=O)n(C2CC2)c1=O [Example 34] | > 10 × 10⁻⁵ M
CC(=O)CCCCn1cnc2c1c(=O)n(C)c(=O)n2C1CC1 [Example 25] | > 10 × 10⁻⁵ M
CCCCn1cnc2c1c(=O)n(CCCCC(C)=O)c(=O)n2C1CC1 [Example 15] | > 10 × 10⁻⁵ M
CCCCn1c(=O)c2c(ncn2CC(C)=O)n(C2CC2)c1=O [Example 30] | > 10 × 10⁻⁵ M
CC(=O)CCCCn1c(=O)c2c(ncn2C)n(C2CC2)c1=O [Example 6] | > 10 × 10⁻⁵ M
CCCn1cnc2c1c(=O)n(CCCCC(C)=O)c(=O)n2C [Reference compound B, propentofylline, reference compound] | 5.1 × 10⁻⁵ M
CCCCCCn1cnc2c1c(=O)n(CCCCC(C)=O)c(=O)n2C1CC1 [Example 17] | > 10 × 10⁻⁵ M
